From: paper PMC12345971

experiment: Cytotoxicity against normal cell line; type: cell-based; settings: human, MRC-5 normal fetal lung fibroblast cells
Catalogue of IC50 at 48 h values
Give the number; µM is assumed, so skip it.

stdin: Determine from records and report IC50 at 48 h for COc1cc([C@@H]2c3cc4c(cc3[C@@H](O[C@@H]3O[C@@H]5CO[C@@H](C)O[C@H]5[C@H](O)[C@H]3O)[C@H]3COC(=O)[C@H]23)OCO4)cc(OC)c1O [Etoposide, etoposide]
stdout: 13.3

stdin: Give the reported IC50 at 48 h for this compound. COc1cccc2c1C(=O)c1c(O)c3c(c(O)c1C2=O)C[C@@](O)(C(=O)CO)C[C@@H]3O[C@H]1C[C@H](N)[C@H](O)[C@H](C)O1
stdout: 0.93
